Reported pIC50 values are given for each entry in this list.
- TARGET UNDER TEST: Factor D (Homo sapiens (Human))
- MEASUREMENT PROTOCOL: biochemical
- Type: biochemical
- CONDITION INFO: read-out: IC50
pIC50: −log10 of the molar value.
ATTRIBUTE MEASURED: pIC50

- STRUCTURE NOTATION: "O=C(CO)c1nn(CC(=O)N2[C@@H]3C[C@@H]3C[C@H]2C(=O)NCc2cccc(Cl)c2F)c2ccccc12"
  REPORTED: 7.72
- STRUCTURE NOTATION: "CCc1ccc2c(NC(=O)N3CCC[C@H]3C(=O)Nc3cccc(OC(F)(F)F)c3)cn(C(N)=O)c2c1"
  REPORTED: 5.96
- STRUCTURE NOTATION: "CC(C)c1cccc(NC(=O)[C@@H]2C[C@H]3C[C@H]3N2C(=O)Cn2nc(C(N)=O)c3ccncc32)n1"
  REPORTED: 6.80
- STRUCTURE NOTATION: "COCCNC(=O)c1cc(Cl)c(F)c(CNC(=O)[C@@H]2C[C@@H](F)CN2C(=O)Nc2cn(C(N)=O)c3ccccc23)c1"
  REPORTED: 6.03
- STRUCTURE NOTATION: "CC[C@H](C)[C@H](NC(=O)[C@@H]1C[C@H](N)CN1C(=O)Nc1cn(C(N)=O)c2ccccc12)C(N)=O"
  REPORTED: 4.63

* * *

- TARGET UNDER TEST: Factor D (Homo sapiens (Human))
- MEASUREMENT PROTOCOL: biochemical
- Assay type: biochemical
- CONDITION INFO: read-out: IC50
Below, each entry is listed with its recorded IC50.

- MOLECULE: "NC(=O)c1nn(CC(=O)N2[C@@H]3C[C@@H]3C[C@H]2C(=O)Nc2cccc(OC(F)(F)F)c2F)c2cnccc12"
  IC50 [nM]: 61
- MOLECULE: "COC[C@@H](NC(=O)[C@@H]1C[C@H]2C[C@H]2N1C(=O)Cn1cc(C(C)=O)c2cccnc21)c1cccc(Cl)c1F"
  IC50 [nM]: 34
- MOLECULE: "CC(=O)c1cn(CC(=O)N2[C@@H]3C[C@@H]3C[C@H]2C(=O)NCc2cccc(Cl)c2F)c2cc(CC(=O)O)ccc12"
  IC50 [nM]: 95
- MOLECULE: "COC[C@@H](NC(=O)[C@@H]1[C@H]2C[C@H]2CN1C(=O)Nc1cn(C(N)=O)c2ccccc12)c1cccc(Cl)c1F"
  IC50 [nM]: 1050
- MOLECULE: "NC(=O)n1cc(NC(=O)N2C[C@H]3OC3[C@H]2C(=O)NCc2cccc(Cl)c2F)c2ccccc21 (some centres unmarked)"
  IC50 [nM]: 100

* * *

- TARGET UNDER TEST: Factor D (Homo sapiens (Human))
- MEASUREMENT PROTOCOL: biochemical
- Type: biochemical
- CONDITION INFO: read-out: IC50
pIC50: −log10 of the molar value.
Below is a list of entries, each paired with its recorded pIC50 value.
ATTRIBUTE MEASURED: pIC50

- STRUCTURE NOTATION: "NC(=O)n1cc(NC(=O)N2C[C@@H](N)C[C@H]2C(=O)NCc2cc(Cl)ccc2F)c2ccccc21"
  ATTRIBUTE MEASURED: "pIC50"
  REPORTED: 6.90
- STRUCTURE NOTATION: "CO[C@H]1[C@@H](C(=O)N[C@H](C)c2cccc(Cl)c2F)N(C(=O)Cn2nc(C(N)=O)c3cccnc32)C[C@@H]1F"
  ATTRIBUTE MEASURED: "pIC50"
  REPORTED: 7.60
- STRUCTURE NOTATION: "COc1ccc2c(c1)c(C=O)cn2CC(=O)N1C[C@H](F)C[C@H]1C(=O)NCc1cccc(Cl)c1F"
  ATTRIBUTE MEASURED: "pIC50"
  REPORTED: 6.85
- STRUCTURE NOTATION: "CO[C@H]1[C@@H](C(=O)NC2(c3cccc(Cl)c3F)CC2)N(C(=O)Cn2nc(C(N)=O)c3cnccc32)C[C@@H]1F"
  ATTRIBUTE MEASURED: "pIC50"
  REPORTED: 7.80
- STRUCTURE NOTATION: "NC(=O)n1cc(NC(=O)N2C[C@@H](CO)C[C@H]2C(=O)NCc2c(F)ccc(Cl)c2F)c2ccccc21"
  ATTRIBUTE MEASURED: "pIC50"
  REPORTED: 6.82

* * *

- TARGET UNDER TEST: Factor D (Homo sapiens (Human))
- MEASUREMENT PROTOCOL: biochemical
- Assay type: biochemical
- CONDITION INFO: read-out: IC50
pIC50: −log10 of the molar value.
# maps each entry to its pIC50

- COMPOUND: "CO[C@H]1[C@@H](C(=O)N[C@H](C)c2cccc(Cl)c2F)N(C(=O)Cn2nc(C(C)=O)c3cccnc32)C[C@@H]1F [Example 624]"
  pIC50: 7.59
- COMPOUND: "COCC(=O)c1cn(CC(=O)N2C[C@H](F)C[C@H]2C(=O)NCc2cccc(Cl)c2F)c2ccccc12 [Example 565]"
  pIC50: 6.43
- COMPOUND: "NC(=O)c1nn(CC(=O)N2CCS[C@H]2C(=O)NCc2cccc(Cl)c2F)c2cnccc12 [Example 657]"
  pIC50: 7.11

* * *

- TARGET UNDER TEST: Factor D (Homo sapiens (Human))
- MEASUREMENT PROTOCOL: biochemical
- Type: biochemical
- CONDITION INFO: read-out: IC50
ATTRIBUTE MEASURED: log10(IC50) (log10 of the value in nM)

- COMPOUND: "COc1ccc2c(c1)c(CC(=O)N1C3CC3C[C@H]1C(=O)NCc1cccc(Cl)c1F)cn2C(N)=O (stereo partly shown) [Example 452]"
  TARGET UNDER TEST: "Factor D (Homo sapiens (Human))"
  log10(IC50): 1.18
- COMPOUND: "COc1cc(NC(=O)[C@@H]2C[C@@H](F)CN2C(=O)Nc2cn(C(N)=O)c3ccccc23)ccn1 [Example 309]"
  TARGET UNDER TEST: "Factor D (Homo sapiens (Human))"
  log10(IC50): 2.74
- COMPOUND: "NC(=O)n1cc(NC(=O)N2C[C@H](F)C[C@H]2C(=O)NCc2ccncc2)c2ccccc21 [Example 6]"
  TARGET UNDER TEST: "Factor D (Homo sapiens (Human))"
  log10(IC50): 3.32
- COMPOUND: "COC(=O)C(NC(=O)[C@@H]1C[C@H](N)CN1C(=O)Nc1cn(C(N)=O)c2ccccc12)C(C)C (stereo in doubt) [Example 94]"
  TARGET UNDER TEST: "Factor D (Homo sapiens (Human))"
  log10(IC50): 4.04
- COMPOUND: "NC(=O)c1nn(CC(=O)N2[C@@H]3C[C@@H]3C[C@H]2C(=O)Nc2cccc(-c3c(F)cccc3Cl)c2)c2cnccc12 [Example 722]"
  TARGET UNDER TEST: "Factor D (Homo sapiens (Human))"
  log10(IC50): 1.30
- COMPOUND: "NC(=O)n1cc(NC(=O)N2N=CCC2C(=O)NCc2cccc(Cl)c2F)c2ccccc21 (racemic) [Example 201]"
  TARGET UNDER TEST: "Factor D (Homo sapiens (Human))"
  log10(IC50): 1.30
- COMPOUND: "CC(C)(C)c1cccc(NC(=O)[C@@H]2CC3CC3N2C(=O)Nc2cn(C(N)=O)c3ccccc23)c1 (stereo partly shown) [Example 330]"
  TARGET UNDER TEST: "Factor D (Homo sapiens (Human))"
  log10(IC50): 2.40
- COMPOUND: "NC(=O)n1cc(NC(=O)N2[C@@H]3C[C@@H]3C[C@H]2C(=O)NCc2cccc(Cl)c2F)c2cc(OCCn3ccnc3)ccc21 [Example 389]"
  TARGET UNDER TEST: "Factor D (Homo sapiens (Human))"
  log10(IC50): 1.48
- COMPOUND: "NC(=O)n1cc(NC(=O)N2C[C@H](F)C[C@H]2C(=O)NCc2cc(C(=O)O)cc(Cl)c2F)c2ccccc21 [Example 144]"
  TARGET UNDER TEST: "Factor D (Homo sapiens (Human))"
  log10(IC50): 1.18
- COMPOUND: "NC(=O)c1cn(CC(=O)N2[C@@H]3C[C@@H]3C[C@H]2C(=O)NCc2cccc(Cl)c2F)c2ccccc12 [Example 475]"
  TARGET UNDER TEST: "Factor D (Homo sapiens (Human))"
  log10(IC50): 2.54

* * *

- TARGET UNDER TEST: Factor D (Homo sapiens (Human), UniProt P00746)
- Sequence (P00746 26-253): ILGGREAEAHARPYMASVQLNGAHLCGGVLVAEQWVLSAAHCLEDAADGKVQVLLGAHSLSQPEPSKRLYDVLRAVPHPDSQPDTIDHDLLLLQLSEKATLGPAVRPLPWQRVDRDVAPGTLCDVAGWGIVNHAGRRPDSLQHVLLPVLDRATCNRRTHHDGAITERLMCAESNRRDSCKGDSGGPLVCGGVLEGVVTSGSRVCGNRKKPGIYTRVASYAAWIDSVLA
- MEASUREMENT PROTOCOL: biochemical
- Type: biochemical
- CONDITION INFO: read-out: IC50

- STRUCTURE NOTATION: "NC(=O)n1cc(CC(=O)N2C[C@@](F)(CO)C[C@H]2C(=O)NCc2cccc(Cl)c2F)c2ccccc21"
  IC50: "90 nM"
- STRUCTURE NOTATION: "NC(=O)c1nn(CC(=O)N2[C@@H]3C[C@@H]3C[C@H]2C(=O)Nc2cccc(OC(F)(F)F)c2F)c2ccccc12"
  IC50: "88 nM"
- STRUCTURE NOTATION: "CC(C)(C)OC(=O)COc1ccc2c(c1)c(NC(=O)N1[C@@H]3C[C@@H]3C[C@H]1C(=O)NCc1ccccc1F)cn2C(N)=O"
  IC50: "38 nM"
- STRUCTURE NOTATION: "CC(=O)c1cn(CC(=O)N2[C@@H]3C[C@@H]3C[C@H]2C(=O)NCc2cccc(Cl)c2F)c2ccc(C(=O)O)cc12"
  IC50: "1610 nM"
